system: 1405R3; assay: High-throughput drug screen, CellTiter-Glo viability, 72 h; assay type: cell-based, human; conditions: 1405R3 DSRT analysis; slope of fitted dose-response curve
Task for the reader: assign each of the following compounds its reported SLOPE.
Just the number, please.

Request: Reported SLOPE for 1405R3, given C[C@@H]1O[C@@H](O[C@H]2[C@H](O[C@H]3[C@H](O[C@H]4CC[C@]5(C)[C@H]6CC=C7[C@@H]8CC(C)(C)CC[C@]8(C(=O)O)CC[C@@]7(C)[C@]6(C)CC[C@H]5C4(C)C)OC[C@H](O)[C@@H]3O)O[C@H](CO)[C@@H](O)[C@@H]2O)[C@H](O)[C@H](O)[C@H]1O ?
Response: -2.5

Request: Reported SLOPE for 1405R3, given O=C(NCC1(c2nc(-c3ccccc3)cs2)CCOCC1)c1cccc(-c2noc(C(F)(F)F)n2)c1 ?
Response: -0.2

Request: Reported SLOPE for 1405R3, given c1cncc(-c2cn[nH]n2)c1 ?
Response: -0.1

Request: Reported SLOPE for 1405R3, given O=C(NO)c1ccc(CC(=O)N(CCO)c2ccccc2)cc1 ?
Response: -0.1

Request: Reported SLOPE for 1405R3, given O=C(CCc1ccc(CN[C@H](C(=O)OC2CCCC2)C2CCCCC2)cn1)NO ?
Response: -1.9

Request: Reported SLOPE for 1405R3, given Cc1cc(C)cc(C(=O)NOCCCCCC(=O)NO)c1 ?
Response: -1.7

Request: Reported SLOPE for 1405R3, given CCNC(=O)C[C@@H]1N=C(c2ccc(Cl)cc2)c2cc(OC)ccc2-n2c(C)nnc21 ?
Response: -2.5

Request: Reported SLOPE for 1405R3, given CNCCN(C)Cc1cn[nH]c1-c1ccc(OC2CC(OCCC3CCOCC3)C2)cc1.Cl (stereo not shown) [EPZ020411 2HCl] ?
Response: -2.5

Request: Reported SLOPE for 1405R3, given COc1cc2c(NC3CCN(C)CC3)cc(-c3ccc(C)o3)nc2cc1OCCCN1CCCC1 ?
Response: -2.5

Request: Reported SLOPE for 1405R3, given CN1CCc2c(c3ccccc3n2Cc2ccc(C(=O)NO)cc2)C1.O=C(O)C(F)(F)F [Tubastatin A TFA] ?
Response: -0.1
